- Test system: P12-Ichikawa
- ASSAY NAME: cell viability relative to DMSO control; higher = less cytotoxic
- EXPERIMENTAL SETUP: RPMI 5 mM glucose + 10% dialyzed FBS; 48 h; 0.00234 µM
READOUT NAME: cell viability (%)
// note: answer is a bare numeric in %

Reference set, count: 3
> print(dat)
                                   molecule  result.value
1  CC1(C)Cc2c(sc(NC(=S)NC(=O)c3ccccc3)c2C(=O)O)CO1           112
2  C=CC(=O)Nc1cccc(Oc2nc(Nc3ccc(N4CCN(C)CC4)cc3OC)ncc2Cl)c1          89.4
3                  C[N+](C)(C)CC(=O)O.[Cl-]          87.4

The record that follows has no cell viability shown yet.
Input line: Query (molecule): NC1CCC(Nc2nc(Nc3ccc(C(=O)N4CCCCC4)cc3)c3ncn(-c4cccc(F)c4)c3n2)CC1 (configuration not stated) ; field requested: cell viability
Output line: 108

###

- Test system: P12-Ichikawa
- ASSAY NAME: cell viability relative to DMSO control; higher = less cytotoxic
- EXPERIMENTAL SETUP: RPMI 5 mM glucose + 10% FBS; 48 h; 1.71 µM
READOUT NAME: cell viability (%)
// note: answer is a bare numeric in %

> print(dat)
                                   molecule  result.value
1  CCN1\C=C(C(O)=O)/C(=O)C2=C1C=C(N3CCN(C)CC3)C(=C2)F           112
2  O=C(Nc1ccc([N+](=O)[O-])cc1Cl)c1cc(Cl)ccc1O          71.6
3  CN(C)CC[C@H](CSc1ccccc1)Nc1ccc([S+](=O)([O-])NC(=O)c2ccc(N3CCN(Cc4ccccc4-c4ccc(Cl)cc4)CC3)cc2)cc1[N+](=O)[O-]          79.9
4            C=CCc1cc(OC)c(O)c(C(=O)NCCO)c1          95.4
5  COc1cc(Nc2ncc(F)c(Nc3ccc4c(n3)N(COP(=O)(O)O)C(=O)C(C)(C)O4)n2)cc(OC)c1OC          95.7
6  C/C(=C\c1csc(C)n1)[C@@H]1C[C@@H]2O[C@@H]2CCC[C@H](C)[C@H](O)[C@@H](C)C(=O)C(C)(C)[C@@H](O)CC(=O)O1          20.8
7  CCc1c(O)cc(O)c(C(=O)c2ccc(OCCN3CCOCC3)c(OC)c2)c1CC(=O)N(CCOC)CCOC            78
8  CN(c1nccc(=O)[nH]1)C1CCN(c2nc3ccccc3n2Cc2ccc(F)cc2)CC1           109

Input line: Query (molecule): COc1ccc(C(=O)CC(=O)c2ccc(C(C)(C)C)cc2)cc1 ; field requested: cell viability
Output line: 109

Input line: Would you kindly repeat that for COC1=CC(=CC=C1)C2=CC=C(NC(=O)/C3=C(/CCC3)C(O)=O)C(=C2)F ?
Output line: 105

###

- Tested on: SEM cells
- ASSAY NAME: cell viability relative to DMSO control; higher = less cytotoxic
- EXPERIMENTAL SETUP: RPMI 5 mM glucose + 10% dialyzed FBS; 48 h; 0.19 µM
READOUT NAME: cell viability
Note: state the figure and append the unit.

MOLECULE	RESULT VALUE
CC1(C)Cc2c(sc(NC(=S)NC(=O)c3ccccc3)c2C(=O)O)CO1	88.3%

Input line: Query (molecule): O=[S+]([O-])(CCSSCC[S+](=O)([O-])[O][Na])[O][Na] ; field requested: cell viability
Output line: 120%

Input line: Would you kindly repeat that for CO[C@H]1/C=C/O[C@@]2(C)Oc3c(C)c(O)c4c(O)c(c(/C=N/N5CCN(C)CC5)c(O)c4c3C2=O)NC(=O)/C(C)=C\C=C\[C@H](C)[C@H](O)[C@@H](C)[C@@H](O)[C@@H](C)[C@H](OC(C)=O)[C@@H]1C ?
Output line: 108%

Input line: Would you kindly repeat that for COc1nccc(-c2c(-c3ccc(F)cc3)ncn2C2CCC(O)CC2)n1 (configuration not stated) ?
Output line: 127%

Input line: Would you kindly repeat that for CCCCOc1ccc(CC(=O)NO)cc1 ?
Output line: 115%

Input line: Would you kindly repeat that for Nc1nc(Nc2ccc([S+](N)(=O)[O-])cc2)nn1C(=O)c1c(F)cccc1F ?
Output line: 122%

Input line: Would you kindly repeat that for O=C(O)c1ccc(-c2c[nH]c3ncc(-c4ccccc4)cc23)cc1C1CCCC1 ?
Output line: 115%

Input line: Would you kindly repeat that for COc1cc(Nc2ncc(F)c(Nc3ccc4c(n3)N(COP(=O)(O)O)C(=O)C(C)(C)O4)n2)cc(OC)c1OC ?
Output line: 35.7%

Input line: Would you kindly repeat that for O=P1(N(CCCl)CCCl)NCCCO1 (configuration not stated) ?
Output line: 102%

Input line: Would you kindly repeat that for COc1cccc(Nc2c(C(N)=O)cnc3c(C)cc([S+](=O)([O-])c4cccc(C(=O)N(C)C)c4)cc23)c1 ?
Output line: 142%

Input line: Would you kindly repeat that for CC(=O)OCC(=O)[C@@]12OC(C)(C)O[C@@H]1C[C@H]3[C@@H]4C[C@H](F)C/5=C/C(=O)/C=C\[C@]5(C)[C@@]4(F)[C@@H](O)C[C@]23C ?
Output line: 68.9%

Input line: Would you kindly repeat that for CCOC(CN1C(=O)[C@](CC(=O)Nc2ccc(C)cc2)(NC(=O)Nc2ccc(C)cc2)c2ccccc21)OCC ?
Output line: 113%

Input line: Would you kindly repeat that for CCN1\C=C(C(O)=O)/C(=O)C2=C1C=C(N3CCN(C)CC3)C(=C2)F ?
Output line: 108%

Input line: Would you kindly repeat that for O=[N+]([O-])c1ccc(Nc2ccccc2-c2ccccc2)c2nonc12 ?
Output line: 62.8%

Input line: Would you kindly repeat that for COc1ccccc1OCCNCC(O)COc1cccc2[nH]c3ccccc3c12 (configuration not stated) ?
Output line: 132%

Input line: Would you kindly repeat that for O=C(O)[C@@H](c1ccc(OCc2ccc3ccccc3n2)cc1)C1CCCC1 ?
Output line: 52%

Input line: Would you kindly repeat that for COCCCOc1ccnc(C[S+]([O-])c2nc3ccccc3[nH]2)c1C (configuration not stated) ?
Output line: 103%

Provenance of the data: the supplement of paper PMC11451515
